Every entry's value here was drawn from patent US20250082570A1.

Recorded FICI (Fractional Inhibitory Concentration Index) for the following molecules
- Test system: M abscessus ATCC 19977 Type strain
- assay_info: checkerboard minimum inhibitory concentration (MIC) assay with FICI calculation
- Type: cell-based
- protocol_conditions: labelled Antiinfective-Y in combination with amikacin; M abscessus ATCC 19977
Hey, just send me the number, nothing else.

smiles_representation=CC(C)/N=c1\cc2n(-c3ccc(Cl)cc3)c3ccccc3nc-2cc1Nc1ccc(Cl)cc1 measured_on="M abscessus ATCC 19977 Type strain" reported=0.16
smiles_representation=CN(C)c1cc(NC(=O)CNC(C)(C)C)c(O)c2c1C[C@H]1C[C@H]3[C@H](N(C)C)C(O)=C(C(N)=O)C(=O)[C@@]3(O)C(O)=C1C2=O measured_on="M abscessus ATCC 19977 Type strain" reported=0.75
smiles_representation=C[C@@H](O)[C@H]1C(=O)N2C(C(=O)O)=C(S[C@@H]3CN[C@H](CNS(N)(=O)=O)C3)[C@H](C)[C@H]12 measured_on="M abscessus ATCC 19977 Type strain" reported=0.31
smiles_representation=CC(=O)NC[C@H]1CN(c2ccc(N3CCOCC3)c(F)c2)C(=O)O1 measured_on="M abscessus ATCC 19977 Type strain" reported=3.00

Consider COc1c(N2C[C@@H]3CCCN[C@@H]3C2)c(F)cc2c(=O)c(C(=O)O)cn(C3CC3)c12 . Its measured FICI (Fractional Inhibitory Concentration Index) is 0.38

Consider CO[C@H]1/C=C/O[C@@]2(C)Oc3c(C)c(O)c4c(O)c(c(/C=N/N5CCN(C)CC5)c(O)c4c3C2=O)NC(=O)/C(C)=C\C=C\[C@H](C)[C@H](O)[C@@H](C)[C@@H](O)[C@@H](C)[C@H](OC(C)=O)[C@@H]1C . Its measured FICI (Fractional Inhibitory Concentration Index) is 0.31
